Values compiled from ChEMBL document CHEMBL5108030.

# assay-notes: Drug concentration in diet-induced obesity model of C57BL/6J mouse at 200 mg/kg,po measured after 10 days
# Format: ADME, organism-based
# condition-label: in vivo, time 10 day, read-out: Drug uptake
measured-metric: concentration at 240 h (ng/mL)

[[record]]
smiles_code = "COc1ccc(C(=O)C2CCN(C(=O)c3ccc(C(=O)NC4CCN(Cc5ccc(C#N)cc5)CC4)cn3)CC2)cc1"
experimental_result = 140


###

# EC50 values compiled below
# tested-on: AMP-activated protein kinase, AMPK
# assay-notes: Activation of AMPK in human HepG2 cells assessed as increase in ACC phosphorylation at Ser79 incubated for 1 hr
# Assay type: cell-based
measured-metric: EC50

[[record]]
smiles_code = "O=C(NC1CCN(Cc2ccc(OC(F)(F)F)cc2)CC1)c1ccc(C(=O)N2CCC(C(=O)c3ccc(N4CCCC4)cc3)CC2)nc1"
tested_on = "AMP-activated protein kinase, AMPK"
experimental_result = "9 nM"

[[record]]
smiles_code = "CC(C)(c1ccc(F)cc1)N1CCN(C(=O)c2ccc(C(=O)NC3CCN(Cc4ccc(C#N)cc4)CC3)nc2)CC1"
tested_on = "AMP-activated protein kinase, AMPK"
experimental_result = "6 nM"

[[record]]
smiles_code = "N#Cc1ccc(CC2CCN(C(=O)c3ccc(C(=O)NC4CCN(Cc5ccc(C#N)cc5)CC4)nc3)CC2)cc1"
tested_on = "AMP-activated protein kinase, AMPK"
experimental_result = "14 nM"

